test system: Human immunodeficiency virus 2; assay: Antiviral activity against HIV2 isolate CBL20, CBL23, MVP15132 with 182L mutation in CBMCs; assay type: functional, organism-based

smiles-representation: CC(C)CN(C[C@@H](O)[C@H](Cc1ccccc1)NC(=O)O[C@H]1CCOC1)S(=O)(=O)c1ccc(N)cc1
IC50: 528 nM
--
smiles-representation: CCC[C@@]1(CCc2ccccc2)CC(O)=C([C@H](CC)c2cccc(NS(=O)(=O)c3ccc(C(F)(F)F)cn3)c2)C(=O)O1
IC50: 4440 nM
--
smiles-representation: CC(C)(C)NC(=O)[C@@H]1CN(Cc2cccnc2)CCN1C[C@@H](O)C[C@@H](Cc1ccccc1)C(=O)N[C@H]1c2ccccc2C[C@H]1O
IC50: 64 nM
--
smiles-representation: Cc1cccc(C)c1OCC(=O)N[C@@H](Cc1ccccc1)[C@@H](O)C[C@H](Cc1ccccc1)NC(=O)[C@H](C(C)C)N1CCCNC1=O
IC50: 75 nM
--
smiles-representation: Cc1c(O)cccc1C(=O)N[C@@H](CSc1ccccc1)[C@H](O)CN1C[C@H]2CCCC[C@H]2C[C@H]1C(=O)NC(C)(C)C
IC50: 106 nM

---

system: Human immunodeficiency virus 1; assay: Antiviral activity against HIV1 isolate 5512 with […] and M46L mutation in CBMCs; format: functional, organism-based
In this section, each of the molecules is paired with its reported IC50.

smiles-representation: Cc1cccc(C)c1OCC(=O)N[C@@H](Cc1ccccc1)[C@@H](O)C[C@H](Cc1ccccc1)NC(=O)[C@H](C(C)C)N1CCCNC1=O
IC50 / nM: 1

smiles-representation: Cc1c(O)cccc1C(=O)N[C@@H](CSc1ccccc1)[C@H](O)CN1C[C@H]2CCCC[C@H]2C[C@H]1C(=O)NC(C)(C)C
IC50 / nM: 31

smiles-representation: CCC[C@@]1(CCc2ccccc2)CC(O)=C([C@H](CC)c2cccc(NS(=O)(=O)c3ccc(C(F)(F)F)cn3)c2)C(=O)O1
IC50 / nM: 42

smiles-representation: CC(C)CN(C[C@@H](O)[C@H](Cc1ccccc1)NC(=O)O[C@H]1CCOC1)S(=O)(=O)c1ccc(N)cc1
IC50 / nM: 116

smiles-representation: CC(C)(C)NC(=O)[C@@H]1CN(Cc2cccnc2)CCN1C[C@@H](O)C[C@@H](Cc1ccccc1)C(=O)N[C@H]1c2ccccc2C[C@H]1O
IC50 / nM: 45

---

In this section, each of the compounds is paired with its reported IC50.
test system: Human immunodeficiency virus 2; test: Antiviral activity against HIV2 isolate CBL20, CBL23, MVP15132 with 150V mutation in CBMCs; format: functional, organism-based
outcome-measure: IC50

smiles-representation: Cc1cccc(C)c1OCC(=O)N[C@@H](Cc1ccccc1)[C@@H](O)C[C@H](Cc1ccccc1)NC(=O)[C@H](C(C)C)N1CCCNC1=O
measured: 203 nM
--
smiles-representation: CC(C)(C)NC(=O)[C@@H]1CN(Cc2cccnc2)CCN1C[C@@H](O)C[C@@H](Cc1ccccc1)C(=O)N[C@H]1c2ccccc2C[C@H]1O
measured: 72 nM
--
smiles-representation: CCC[C@@]1(CCc2ccccc2)CC(O)=C([C@H](CC)c2cccc(NS(=O)(=O)c3ccc(C(F)(F)F)cn3)c2)C(=O)O1
measured: 316 nM
--
smiles-representation: Cc1c(O)cccc1C(=O)N[C@@H](CSc1ccccc1)[C@H](O)CN1C[C@H]2CCCC[C@H]2C[C@H]1C(=O)NC(C)(C)C
measured: 132 nM
--
smiles-representation: CC(C)CN(C[C@@H](O)[C@H](Cc1ccccc1)NC(=O)O[C@H]1CCOC1)S(=O)(=O)c1ccc(N)cc1
measured: > 10000 nM

---

tested on: Human immunodeficiency virus 2; assay: Antiviral activity against HIV2 isolate CBL20, CBL23, MVP15132 with […] and L99F mutation in CBMCs; assay type: functional, organism-based
pIC50: −log10 of the molar value.
In this section, each of the compounds is paired with its reported pIC50.

smiles-representation: CCC[C@@]1(CCc2ccccc2)CC(O)=C([C@H](CC)c2cccc(NS(=O)(=O)c3ccc(C(F)(F)F)cn3)c2)C(=O)O1
relation-operator: =
pIC50: 5.54
//
smiles-representation: CC(C)(C)NC(=O)[C@@H]1CN(Cc2cccnc2)CCN1C[C@@H](O)C[C@@H](Cc1ccccc1)C(=O)N[C@H]1c2ccccc2C[C@H]1O
relation-operator: =
pIC50: 6.08
//
smiles-representation: Cc1cccc(C)c1OCC(=O)N[C@@H](Cc1ccccc1)[C@@H](O)C[C@H](Cc1ccccc1)NC(=O)[C@H](C(C)C)N1CCCNC1=O
relation-operator: =
pIC50: 6.38
//
smiles-representation: Cc1c(O)cccc1C(=O)N[C@@H](CSc1ccccc1)[C@H](O)CN1C[C@H]2CCCC[C@H]2C[C@H]1C(=O)NC(C)(C)C
relation-operator: =
pIC50: 5.65
//
smiles-representation: CC(C)CN(C[C@@H](O)[C@H](Cc1ccccc1)NC(=O)O[C@H]1CCOC1)S(=O)(=O)c1ccc(N)cc1
relation-operator: <
pIC50: 5.00

Reference for the values: ChEMBL document CHEMBL1142192
